target.under.test: Calmodulin-1 (Homo sapiens) (UniProt P0DP23)
assay.text: small molecules binding calmodulin-1 with EGTA – biochemical, small-molecule microarray, Cy5-labelled CALM1, profiling panel (AID 1111);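 also: labelled calmodulin applied in Tris saline Tween buffer holding calcium plus EGTA and DTT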
measurement.context: Cy5-CALM1 binding fluorescence, higher = more signal
metric.name: composite z-score
Please state the value as a number alone, without comment.

In one line, give reported composite z-score of the entry COc1ccc(C(O)C2C=CC3C(=O)N(c4ccccc4)C(=O)C3N2Nc2ccccc2)c2ccccc12 (configuration not stated) .
1.25

In one line, give reported composite z-score of the entry O=C(NCc1ccccc1)[C@@H]1c2ccccc2C(=O)N(C2CCCCC2)[C@H]1c1ccc(CO)cc1 .
-0.576

In one line, give reported composite z-score of the entry [N-]=[N+]=NCc1ccccc1C[C@]1(C(=O)NCCN2CCOCC2)N=C(c2ccc(OCCCO)cc2)O[C@H]1c1ccccc1CN=[N+]=[N-] .
0.86

In one line, give reported composite z-score of the entry C=CC[C@]1(C(=O)O)N=C(c2ccc(OCCCO)cc2)O[C@H]1c1ccccc1CN=[N+]=[N-] .
0.371

In one line, give reported composite z-score of the entry O=C1C[C@@](C(=O)O)(c2ccc([N+](=O)[O-])cc2)[C@@H](c2ccc(CO)cc2I)N1C1CCCCC1 .
1.6

In one line, give reported composite z-score of the entry COc1ccc(C#Cc2ccc3c(c2)[C@]2(C(=O)N3)[C@H](C(=O)N3CCN(c4ncccn4)CC3)[C@H]3C(=O)O[C@H](c4ccccc4)[C@H](c4ccccc4)N3[C@@H]2c2ccc(O)cc2)cc1 .
1.23

In one line, give reported composite z-score of the entry Cc1ccc(S[C@]2(C(=O)NCCCN(C)C)CC(=O)N(Cc3ccccc3)[C@@H]2c2ccc(CO)cc2)cc1 .
-0.676

---

Tested on: XIP peptide (Xip251-270)
assay.text: compounds binding XIP fragment 251-270 – biochemical, small-molecule microarray, fluorescence 635/667 nm, 0.5 µg/mL protein, primary screen (AID 1183)
measurement.context: fluorescence 635 nm, higher = more signal
metric.name: composite z-score

In one line, give reported composite z-score of the entry O=P(NCC1(CC2(c3ccccc3)CO2)CC1)(c1ccccc1)c1ccccc1 (configuration not stated) .
0.822

In one line, give reported composite z-score of the entry [N-]=[N+]=NCc1ccccc1C[C@@]1(C(=O)NCc2ccccc2)N=C(c2ccc(OCCCO)cc2)O[C@@H]1c1ccccc1CN=[N+]=[N-] .
0.735

In one line, give reported composite z-score of the entry O=C1C2C=CC(C(O)c3cccc4ccccc34)N(n3cnnc3)C2C(=O)N1Cc1ccccc1 (configuration not stated) .
-0.633

In one line, give reported composite z-score of the entry C=CCC(OC(C)=O)[C@@H]1[C@@H](N(Cc2cc3ccccc3o2)C(=O)c2ccc(C)cc2)c2cc(OCCCO)ccc2N1C(=O)c1ccc(-c2ccccc2)cc1 (some centres not stated) .
-0.294

In one line, give reported composite z-score of the entry C[N+](C)(C)CCCC[C@@H]1NC(=O)[C@H]2C[C@@H](C(=O)O)[C@@H](c3cccc(OCCO)c3)N2C1=O .
0.809

In one line, give reported composite z-score of the entry CCN(CC)c1ccc(N2CC=CC34O[C@@H]5C=CCOC(=O)[C@@H]5[C@H]3C(=O)N(CCCCCO)[C@@H]4C2=O)cc1 (some centres not stated) .
-0.982

In one line, give reported composite z-score of the entry O=C1OCCC=C[C@H]2OC34C=CCN(CCN5CCOCC5)C(=O)[C@H]3N(CCO)C(=O)[C@@H]4C12 (some centres not stated) .
0.0053
